- Tested target: human ether-à-go-go-related gene (hERG) potassium channel (human, UniProt Q12809);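 note: peak tail current of the secondary pulse compared with the same well before compound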
- Sequence (Q12809 whole entry, looked up): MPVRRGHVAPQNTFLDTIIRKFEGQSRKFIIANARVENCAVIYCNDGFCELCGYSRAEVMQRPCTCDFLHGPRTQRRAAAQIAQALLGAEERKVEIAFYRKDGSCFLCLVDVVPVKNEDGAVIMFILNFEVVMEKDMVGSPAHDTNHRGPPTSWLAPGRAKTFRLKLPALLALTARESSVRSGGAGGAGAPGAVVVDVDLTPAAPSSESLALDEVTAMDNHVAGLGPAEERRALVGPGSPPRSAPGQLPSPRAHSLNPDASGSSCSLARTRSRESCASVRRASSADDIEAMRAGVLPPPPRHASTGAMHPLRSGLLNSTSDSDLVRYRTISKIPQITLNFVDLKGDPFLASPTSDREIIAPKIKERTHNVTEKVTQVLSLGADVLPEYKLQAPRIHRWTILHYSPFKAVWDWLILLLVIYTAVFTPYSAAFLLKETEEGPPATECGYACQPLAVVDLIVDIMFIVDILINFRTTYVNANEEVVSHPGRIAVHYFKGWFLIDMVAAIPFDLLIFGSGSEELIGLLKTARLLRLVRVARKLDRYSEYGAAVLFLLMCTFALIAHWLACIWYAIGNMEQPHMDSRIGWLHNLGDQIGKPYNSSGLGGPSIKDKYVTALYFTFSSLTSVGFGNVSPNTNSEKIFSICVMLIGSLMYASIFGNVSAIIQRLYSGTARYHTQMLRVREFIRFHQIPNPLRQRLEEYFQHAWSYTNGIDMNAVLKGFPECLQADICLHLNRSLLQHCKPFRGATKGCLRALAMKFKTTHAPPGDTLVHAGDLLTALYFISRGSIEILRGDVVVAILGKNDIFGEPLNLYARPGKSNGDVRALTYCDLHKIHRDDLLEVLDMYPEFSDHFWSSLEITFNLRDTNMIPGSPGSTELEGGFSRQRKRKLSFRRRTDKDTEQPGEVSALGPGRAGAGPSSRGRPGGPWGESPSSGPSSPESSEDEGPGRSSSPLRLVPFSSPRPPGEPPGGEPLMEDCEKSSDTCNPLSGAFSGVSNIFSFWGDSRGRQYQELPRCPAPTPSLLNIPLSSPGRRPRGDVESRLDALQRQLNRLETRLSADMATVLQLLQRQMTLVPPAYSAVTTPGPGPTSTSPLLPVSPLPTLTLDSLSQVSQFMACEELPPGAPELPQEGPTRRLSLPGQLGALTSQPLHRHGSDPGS
- Protocol summary: primary screen, population patch clamp on CHO cells stably expressing hERG; higher = less effect of the substance
Out of some 310,000 compounds screened, about 14,000 (4.5%) showed an effect of 50% or more. Effects have a minus sign here. The full list was thinned out, with strong results kept by preference.
Readout type: hERG current change (%, negative = inhibition) at 10uM (%)
State just the number; it will be interpreted in %.

// returns reported hERG current change (%, negative = inhibition) at 10uM for input "Cc1ccn2c(=O)nc(SCC(=O)N3CCN(c4ccccc4)CC3)nc2c1"
-28.6

Same for "CN(C)CCCNc1cc(-c2ccccc2)nc2cc(-c3cccc(F)c3)nn12"
-15.9

# iterate: "Cc1ccc(-c2cc(C(=O)NCCCN3CCOCC3)no2)cc1"
-30.8

Cool, now "Cc1ccccc1NC(=O)c1ccccc1NC(=O)c1ccccc1F"
11.3

And for "Cc1ccc(C(=O)N2CCN(c3ccccn3)CC2)cc1Cl" ?
-3.65

Another: "CC1CCN(C(=O)CSc2nc(=O)n3ccccc3n2)CC1"
8.67

Subsequent entry: "COc1ccc(CCNS(=O)(=O)c2ccc(S(=O)(=O)N3CCCC3)cc2)cc1OC"
-6.61

Could you do the same for "Fc1cccc(-c2cc3nc4c(c(NCc5ccco5)n3n2)CCCC4)c1" , please?
-33.2

Please do the same for "COC(=O)c1sccc1-n1cc(C#N)c(=O)n(C)c1=O" as well.
17.9

Try this compound next: "COc1ccc(C(=O)OCC(=O)c2ccc(C3CCCCC3)cc2)cc1"
5.66

Please give the result for "O=C(CSc1nc(=O)n2ccccc2n1)N1CCC(Cc2ccccc2)CC1" too.
-58.1

Try this compound next: "O=C(N/N=C/c1c(O)n(C2CC2)c(=S)[nH]c1=O)c1ccccc1O"
2.57

// same read-out, input: "Cc1ccn2c(=O)nc(SCC(=O)N3CCC(C)CC3)nc2c1"
-18.4

Please give the result for CC(Cc1cnccn1)NCc1c(C(=O)N2CCCCCCC2)nc2ccc(Cl)cn12 (stereo not shown) too.
-12.8

Now consider O=C(NCC(c1ccco1)N1CCc2ccccc21)c1ccccc1F (stereo not shown) and answer again.
-19.8

Same question, "COc1ccc(CNCCc2cccc(F)c2)c2ccccc12.O=C(O)C(=O)O" this time
-74

Same for "Cc1nn2c(NCCN(C)C)c3c(nc2c1-c1ccccc1)CCCC3"
-41.4

Another compound to check: "CN1CCN(CCC(=O)Nc2ccc(C3CCCC3)cc2)CC1.Cl"
-55.1

Can you handle "CCOc1ccc(CC(=O)Nc2ccc(S(=O)(=O)N3CCCC3)cc2)cc1" next?
10.4

Then "C#CCOCCOCCOCCNc1nc(N2CCN(C(=O)CCCCCCCCCCNC(=O)Cn3cc(CCCCCN)nn3)CC2)nc(N2CCN(C(=O)CCCCCCCCCCNC(=O)[C@@H](CCC(=O)O)n3cc(CCCCCN)nn3)CC2)n1" ?
-5.58

Next: "CN1CCN(CCCCC(=O)c2ccccc2)CC1.Cl"
-0.477

Please answer likewise for "O=C(O)c1cc(S(=O)(=O)N2CCCCCC2)ccc1Cl"
20

Another: "Cc1ccc(-c2cc(C(=O)NCCCn3ccnc3)no2)cc1"
-42.9

Also "O=C(NCCc1csc(-c2cccnc2)n1)c1ccc(Br)o1" , if possible.
-10.9

Repeat with "Cl.O=C(NCCCN1CCOCC1)c1c(O)c2ccccc2[nH]c1=O"
-47.9

Now the same for "O=C(NCCCn1ccnc1)c1cc(-c2ccccc2)on1"
-16.3

Thanks! And "Cc1ccccc1OCC(=O)Nc1ccc2c(c1)OCO2" ?
-7.9

Same question for "Cc1ccc2nc(SCC(=O)N3CCC(C)CC3)nc(=O)n2c1" please.
-9.74

Similarly, "COc1ccccc1CNCc1ccc(OC)c(OC)c1OC.O=C(O)C(=O)O" ?
-8

Then this compound: "CSc1ccc(Cn2nnc(C(=O)NCc3ccccc3)c2N)cc1"
-0.141

Record: "O=C(CSc1nc(=O)n2ccccc2n1)N1CCN(c2ccccc2)CC1"
-27.7

Also "Cl.O=C(CCN1CCN(CCO)CC1)Nc1ccc(C2CCCC2)cc1" ?
-43

Then what about the compound "CCOC(=O)c1sc2nc(CN3CCN(c4cccc(C(F)(F)F)c4)CC3)[nH]c(=O)c2c1C" ?
8.43

What do we get for "COc1cccc(CNCCc2cccc(F)c2)c1OC.O=C(O)C(=O)O" ?
-5.22

# repeat for "COc1ccc(CNCCc2ccc3c(c2)OCO3)c(OC)c1OC.O=C(O)C(=O)O"
-29.9

And for "Cc1nn2c(N3CCOCC3)c3c(nc2c1-c1ccccc1)CCCC3" ?
-14.8

// same read-out, input: "Cc1cccn2c(=O)nc(SCC(=O)N3CCC(Cc4ccccc4)CC3)nc12"
-78.9

Record: "CN(C)CCCNc1c2c(nc3cc(-c4cccc(F)c4)nn13)CCC2"
-69.1

How about "COc1ccc(N2CCN(C(=O)CSc3nnnn3C3CC3)CC2)cc1" ?
-13.6

Likewise for "Cc1ccc2nc(SCC(=O)N3CCC(Cc4ccccc4)CC3)nc(=O)n2c1" ?
-65

Origin of measurements: paper PMC4336329
